Kindly supply the reported Kd values for the records listed here.
biological target: T1, human transferrin receptor (hTfR) fused to EGFP, on CHO cells (human, UniProt P02786 1-760); assay: apparent Kd, flow cytometry, CHO cells
T1 construct: whole, on cells; also called human TfR; CHO-hTfR-EGFP; not shown: EGFP from pEGFP-C1 vector, fused to the N-terminal (intracellular) end of hTfR
T1 sequence (P02786 whole entry, the tested form may be a part): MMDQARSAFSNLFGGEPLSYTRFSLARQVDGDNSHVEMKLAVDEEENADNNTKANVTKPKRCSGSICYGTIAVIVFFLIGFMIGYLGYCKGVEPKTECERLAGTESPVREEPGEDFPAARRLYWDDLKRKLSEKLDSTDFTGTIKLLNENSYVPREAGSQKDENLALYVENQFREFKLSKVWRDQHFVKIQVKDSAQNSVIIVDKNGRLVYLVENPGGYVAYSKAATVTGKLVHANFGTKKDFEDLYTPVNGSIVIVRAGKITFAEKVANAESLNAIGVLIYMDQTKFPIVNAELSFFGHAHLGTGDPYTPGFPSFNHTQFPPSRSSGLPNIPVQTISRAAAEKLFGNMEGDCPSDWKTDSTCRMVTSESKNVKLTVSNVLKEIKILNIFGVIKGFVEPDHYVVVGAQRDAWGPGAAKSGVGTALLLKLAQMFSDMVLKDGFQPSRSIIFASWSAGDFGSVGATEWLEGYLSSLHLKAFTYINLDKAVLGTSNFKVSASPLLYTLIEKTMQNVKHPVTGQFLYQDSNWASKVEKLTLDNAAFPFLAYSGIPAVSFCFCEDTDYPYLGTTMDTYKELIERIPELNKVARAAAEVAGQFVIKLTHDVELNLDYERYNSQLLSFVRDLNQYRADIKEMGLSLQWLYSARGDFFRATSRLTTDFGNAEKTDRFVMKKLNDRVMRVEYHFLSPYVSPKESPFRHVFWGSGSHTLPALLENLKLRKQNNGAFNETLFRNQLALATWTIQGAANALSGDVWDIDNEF
Give the number; nM is assumed, so skip it.

[in] Give the measured Kd for B7 (VHH) VHH: QVQLVQSGGGLVQAGGSLTLSCTASGRPLSDYPMGWFRRAPEKERELVASISRTGDGTYYADGMRGRFTISRDNSENTVSLQMNNLKPEDTAVYYCGAGINPTKYWGQGTQVTVSS
[out] 1.9

[in] Give the measured Kd for C5^V28 (VHH) VHH: EVQLVESGGGVVQPGGSLKLSCVASGADFSINFIRWYRQAPGKQREFVAGFSATGNTNYADSMKGRFTISRDNTKNAVYLQIDSLKPEDTAVYYCYMLDKWGQGTQVTVSS
[out] 3.3
